biological target: FITC-αSyn (human); test: MST
pKd: −log10 of the molar value.

| substance | pKd |
| --- | --- |
| Decoy peptide CS2 (TAT-C6-GGVVTA) (from UniProt P04608 47-57) | 5.15 |

###

biological target: human recombinant αSyn pre-formed fibrils (PFF) (Type 1) (human); assay: MST

| substance | system under test | Kd (µM) |
| --- | --- | --- |
| Decoy peptide CS2 (TAT-C6-GGVVTA) (from UniProt P04608 47-57) | human recombinant αSyn pre-formed fibrils (PFF) (Type 1) (human) | 4 |

Values from paper PMC12751141
